tested on: Anopheles stephensi; assay: K&D module behavioral bioassay (topical repellency, biting); assay type: in vivo; details: 10 μg/cm^2, DEET values are the positive control run with the chemical
measurement.name: % of biting (±SE) (N = 3) (b %)

[[record]]
structure_notation = "C=C(C)[C@@H]1CCC(C)=C2CC[C@H](C)[C@@H]2C1"
study_system = "Anopheles stephensi"
obs_value = 87

[[record]]
structure_notation = "C=C(C)[C@@H]1CC[C@H](C)C2=C(C1)[C@@H](C)CC2"
study_system = "Anopheles stephensi"
obs_value = 40


---

system: female mosquito Culex pipiens antenna; experiment: GC-EAD antennal response, Culex pipiens; conditions: female Culex pipiens antennae; about 100 ng of each compound; responses weak, but repeatable; FIGS. 7 and 8
measurement.name: GC-EAD antennal activity

[[record]]
molecule = "CC1(C)C2=CCCC(C)(C)C23CCC1C3 (single isomer, unassigned; (-)) [(−)-isolongifolene, 2,2,7,7-tetramethyltricyclo undec-5-ene]"
obs_value = "active"

[[record]]
molecule = "C=C1CC/C=C(\\C)CC[C@@H]2[C@@H]1CC2(C)C [β-Caryophyllene, β-caryophyllene]"
obs_value = "active"

[[record]]
molecule = "C=C1C2CCC3[C@H]2C(C)(C)CCC[C@]13C (single isomer, unassigned; (+)) [(+)-Longifolene]"
obs_value = "active"

[[record]]
molecule = "C=C1CC/C=C(/C)CC[C@@H]2[C@@H]1CC2(C)C [Isocaryophyllene, isocaryophyllene]"
obs_value = "active"

[[record]]
molecule = "CC1=CC[C@@H]2[C@H]3[C@H]1[C@@]2(C)CCCC3(C)C [(+)-longipinene, (+)-Longipinene]"
obs_value = "active"

